assay: Human HepG2 cell viability assay in 384 well format; type: toxicity, cell-based; set-up: dose 125 nL, time 70.5 hour; concentration not given beside the values; conditions: HepG2 cells, read-out: Inhibition
Threshold 20%: cytotoxicity at 70.5 h strictly smaller gives class 1, otherwise class 0.

Check out these entries, answers already filled in.
[
  {
    "Compound": "Cn1ccc(C(=O)NCCOc2ccc(C(C)(C)C)cc2)cc1=O",
    "Category": "class 1"
  },
  {
    "Compound": "CC(C)C(=O)N1CC2(CCN(CC(C)(C)C)CC2)C1",
    "Category": "class 0"
  },
  {
    "Compound": "CN1CCCC1c1ccc(C(=O)N2CCc3ccccc3C2)s1 (stereo not given)",
    "Category": "class 1"
  }
]

Identify whether the compound CC(c1nc(C(C)(C)C)no1)S(=O)(=O)CC(=O)N(C)C (stereo not given) records cytotoxicity at 70.5 h below 20%. class 1

Identify whether the compound Cn1cc(CN2CCC(c3cc(COc4cccc(Cl)c4)[nH]n3)C2)cn1 (stereo not given) records cytotoxicity at 70.5 h below 20%. class 1
